# Tested on: Hep3B
# assay-name: relative cell viability (CellTiter-Glo), compound plus cabozantinib, relative to the cabozantinib arm (arm median 1.05; reference not stated) (fraction); higher = more viable cells (less growth inhibition)
# cond: cabozantinib 2 µM; 4 days
In all, about 1,900 compounds were measured (“relative cell viability (CellTiter-Glo), compound plus cabozantinib, relative to the cabozantinib arm (arm median 1.05; reference not stated)”: median about 1.1, lowest 2% from about 0.15 on). Shown is part of a subset that was picked to be rich in the lowest values.
relative cell viability under 1 gets t, anything at or over 1 gets f.

>>> group_label("Cc1sc2c(c1C)C(c1ccc(Cl)cc1)=N[C@@H](CC(=O)Nc1ccc(O)cc1)c1nnc(C)n1-2")
"t"
>>> group_label("C[C@@H]1O[C@@H](O[C@H]2C[C@@H](O)[C@]3(CO)[C@H]4[C@H](O)C[C@]5(C)[C@@H](C6=CC(=O)OC6)CC[C@]5(O)[C@@H]4CC[C@]3(O)C2)[C@H](O)[C@H](O)[C@H]1O [Ouabain]")
"t"
>>> group_label("CCc1c(C(=O)C(N)=O)c2c(OCC(=O)O)cccc2n1Cc1ccccc1")
"f"
>>> group_label("c1ccc2c(c1)Nc1ccccc1S2 [Phenothiazine]")
"f"
>>> group_label("CN(C)CCc1ccc(O)cc1 [Hordenine]")
"f"
>>> group_label("Cc1cc2c(C(C)C)c(O)c(O)c(C=O)c2c(O)c1-c1c(C)cc2c(C(C)C)c(O)c(O)c(C=O)c2c1O [Gossypol]")
"f"
>>> group_label("CN1[C@@H]2CC[C@H]1C[C@@H](OC(=O)[C@H](CO)c1ccccc1)C2 [Hyoscyamine]")
"f"
